Target: EfFolT (Enterococcus faecalis, UniProt Q837A3, K145T)
Construct: gene EF_0940
Test: biochemical
attributeMeasured: pKd
Note on pKd: it is the negative log10 of concentration, concentration in mol/L.

Indicate its recorded pKd; the compound in question is Nc1nc2ncc(CNc3ccc(C(=O)N[C@@H](CCC(=O)O)C(=O)O)cc3)nc2c(=O)[nH]1 [folate]
5.43

* * *

Target: EfFolT (Enterococcus faecalis, UniProt Q837A3, Y129A)
Assay: biochemical
attributeMeasured: Kd (nM)
Please state the figure in nM; there is no need to write the unit.

State recorded Kd with EfFolT (Enterococcus faecalis, UniProt Q837A3, Y129A), entry Nc1nc2ncc(CNc3ccc(C(=O)N[C@@H](CCC(=O)O)C(=O)O)cc3)nc2c(=O)[nH]1 [folate] , no comment.
635

* * *

Biological target: EfFolT (Enterococcus faecalis, UniProt Q837A3, K36R)
Assay: biochemical
attributeMeasured: pKd
Note on pKd: it is the negative log10 of concentration, concentration in mol/L.

State recorded pKd with EfFolT (Enterococcus faecalis, UniProt Q837A3, K36R), entry Nc1nc2ncc(CNc3ccc(C(=O)N[C@@H](CCC(=O)O)C(=O)O)cc3)nc2c(=O)[nH]1 [folate] , no comment.
7.04

* * *

Molecular target: EfFolT (Enterococcus faecalis, UniProt Q837A3, N117A)
Assay: biochemical
attributeMeasured: Kd

Indicate its recorded Kd; the compound in question is Nc1nc2ncc(CNc3ccc(C(=O)N[C@@H](CCC(=O)O)C(=O)O)cc3)nc2c(=O)[nH]1 [folate]
0.0686 µM

* * *

Target: EfFolT (Enterococcus faecalis, UniProt Q837A3, T81A)
Assay: biochemical
attributeMeasured: pKd
Note on pKd: it is the negative log10 of concentration, concentration in mol/L.

Indicate its recorded pKd; the molecule in question is Nc1nc2ncc(CNc3ccc(C(=O)N[C@@H](CCC(=O)O)C(=O)O)cc3)nc2c(=O)[nH]1 [folate]
6.09

* * *

Target: EfFolT (Enterococcus faecalis, UniProt Q837A3, R26A)
Construct: gene EF_0940
Assay: biochemical
attributeMeasured: Kd (nM)
Please state the figure in nM; there is no need to write the unit.

Indicate its recorded Kd; the molecule in question is Nc1nc2ncc(CNc3ccc(C(=O)N[C@@H](CCC(=O)O)C(=O)O)cc3)nc2c(=O)[nH]1 [folate]
252

* * *

Target: UniProt:Q837A3
Sequence (Q837A3 1-179): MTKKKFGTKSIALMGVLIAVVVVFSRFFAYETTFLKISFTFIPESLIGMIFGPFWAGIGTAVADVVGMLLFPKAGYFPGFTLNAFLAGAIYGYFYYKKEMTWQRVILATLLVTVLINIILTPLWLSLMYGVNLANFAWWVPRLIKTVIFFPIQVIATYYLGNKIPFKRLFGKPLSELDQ
attributeMeasured: Kd (nM)
Please state the figure in nM; there is no need to write the unit.

Indicate its recorded Kd; the compound in question is Nc1nc2ncc(CNc3ccc(C(=O)N[C@@H](CCC(=O)O)C(=O)O)cc3)nc2c(=O)[nH]1 [folate]
29.8

* * *

Target: EfFolT (Enterococcus faecalis, UniProt Q837A3, K36A)
Assay: biochemical
attributeMeasured: pKd
Note on pKd: it is the negative log10 of concentration, concentration in mol/L.

Indicate its recorded pKd; the molecule in question is Nc1nc2ncc(CNc3ccc(C(=O)N[C@@H](CCC(=O)O)C(=O)O)cc3)nc2c(=O)[nH]1 [folate]
5.27
